Experiment summary: Therapeutic ratio is expressed as ratio of optimal dose and minimum effective dose
Assay type: ADME
Run parameters: mouse; read-out: TR
Property: selectivity ratio
// no unit, no text: just the number

# count of solved cases: 6
- Compound: "COC12[C@@H](COC(N)=O)C3=C(C(=O)C(C)=C(NCCCO)C3=O)N1C[C@@H]1[C@H]2N1C (stereo partly drawn)"
  Property: "selectivity ratio"
  Observed measurement: 16
- Compound: "COC12[C@@H]3N[C@@H]3CN1C1=C(C(=O)C(NCCCO)=C(C)C1=O)[C@@H]2COC(N)=O (stereo partly drawn)"
  Property: "selectivity ratio"
  Observed measurement: 8
- Compound: "COC12[C@@H]3N[C@@H]3CN1C1=C(C(=O)C(NCC(N)=O)=C(C)C1=O)[C@@H]2COC(N)=O (stereo partly drawn)"
  Property: "selectivity ratio"
  Observed measurement: 16
- Compound: "C#CCN(C)C1=C(C)C(=O)C2=C(C1=O)[C@H](COC(N)=O)C1(OC)[C@@H]3N[C@@H]3CN21 (stereo partly drawn)"
  Property: "selectivity ratio"
  Observed measurement: 16
- Compound: "COC1=C(C)C(=O)C2=C(C1=O)[C@H](COC(N)=O)C1(OC)[C@H]3[C@@H](CN21)N3C (stereo partly drawn)"
  Property: "selectivity ratio"
  Observed measurement: 8
- Compound: "COC12[C@@H](COC(N)=O)C3=C(C(=O)C(C)=C(NC4CC4)C3=O)N1C[C@@H]1[C@H]2N1C (stereo partly drawn)"
  Property: "selectivity ratio"
  Observed measurement: 2

Qu. I'd like to know its selectivity ratio. The compound in question is COC12[C@@H](COC(N)=O)C3=C(C(=O)C(C)=C(NCc4ccco4)C3=O)N1C[C@@H]1[C@H]2N1C (stereo partly drawn)
Ans. 16

Qu. Also need COC12[C@@H](COC(N)=O)C3=C(C(=O)C(C)=C(N4CC4C)C3=O)N1C[C@@H]1[C@H]2N1C (stereo partly drawn) , thanks.
Ans. 8
